# METHOD SUMMARY: NCI Yeast Anticancer Drug Screen. Data for the mlh1 rad18 strain (AID 175)
# TEST CONTEXT: S. cerevisiae mlh1 rad18 strain growth inhibition; at 5.0 µM (retest, dose inferred, filed as 0.5)
Compounds without any hit were thinned out: in the full panel of roughly 79,000, 15% have a hit. Activity calls are given as the source filed them. Cut-off read from the data, not from the text of the source: active = growth inhibition above about 70%; inactive = the rest.
Your reply should match one of these outcome classes. 1.0 for active, 0.0 for inactive

Exam item: Returns: the outcome recorded for `CCCc1cc2c(cc1O)CC[C@@H]1[C@@H]2CC[C@]2(C)[C@@H](O)CC[C@@H]12` in this assay.
Marked response: 0.0

Exam item: Returns: the outcome recorded for OC1CCCCC1Cc1ccc(Cl)cc1 (stereo not drawn) in this assay.
Marked response: 0.0

Exam item: Returns: the outcome recorded for Cc1ccc(NNC(=O)C(O)C(O)C(O)C(O)CO)cc1 (stereo not drawn) in this assay.
Marked response: 1.0

Exam item: Returns: the outcome recorded for `CC1=CC(=O)[C@@H](O)[C@]2(C)[C@H]3[C@@]4(O)OC[C@]35[C@H]([C@@H](C)[C@H]4O)[C@@H](OC(=O)C(C)(C)CO)C(=O)O[C@@H]5C[C@@H]12` in this assay.
Marked response: 0.0

Exam item: Returns: the outcome recorded for `C(=NCCc1ccccc1)c1ccccc1B1OB(c2ccccc2C=NCCc2ccccc2)OB(c2ccccc2C=NCCc2ccccc2)O1` in this assay.
Marked response: 1.0

Exam item: Returns: the outcome recorded for `CCN1/C(=C/C=C/C=C\C=C\c2sc3ccc4ccccc4c3[n+]2CC)Sc2ccc3ccccc3c21` in this assay.
Marked response: 0.0

Exam item: Returns: the outcome recorded for `CSC(=Nc1ccccc1)/N=C(\SCc1ccccc1)N(C)C` in this assay.
Marked response: 0.0

Exam item: Returns: the outcome recorded for COc1ccc(C2Oc3ccc(Cl)cc3C=C2[N+](=O)[O-])cc1 (stereo not drawn) in this assay.
Marked response: 1.0

---

# METHOD SUMMARY: NCI Yeast Anticancer Drug Screen. Data for the bub3 strain (AID 167)
# TEST CONTEXT: S. cerevisiae bub3 mutant strain, at 50.0 µM, hits give high values
The panel holds about 79,000 compounds, 15% with a hit somewhere; the sample as a whole holds those more often.
Could you please report measured growth inhibition for the items listed next?
Report the value in % with no unit label.

Quick note, growth inhibition for `CCCc1cc2c(cc1CS(=O)(=O)CC)OCO2` landed at 16.7

Quick note, growth inhibition for CC1=Nc2ccccc2C1C(Cc1ccccc1N)c1c(C)[nH]c2ccccc12 (stereo not given) landed at 89.6

Quick note, growth inhibition for `O=Cc1cc(-c2ccccc2)n(-c2ccccc2)c1-c1ccccc1` landed at 35.9

Quick note, growth inhibition for `O=C(O)CSc1ccc(N=C=S)cc1` landed at 0.55

Quick note, growth inhibition for `CC(C)(Br)C(=O)/C=C/c1ccc(Cl)cc1` landed at 99.3

Quick note, growth inhibition for `CCOC(=O)c1cc(C)c(O)c(C(=O)OCC)c1` landed at 52.4

Quick note, growth inhibition for `Oc1cccc(Oc2cccc(Oc3ccccc3)c2)c1` landed at 99.4

Quick note, growth inhibition for CCCCCCC(=O)OCCN(CCOC(=O)CCCCCC)C(=O)C(C)OC(=O)CCCCCC (stereo not given) landed at 98.2

Quick note, growth inhibition for COc1cc(C(c2cc3c(cc2O)OCO3)N2CCOCC2)ccc1O (stereo not given) landed at 42.9

Quick note, growth inhibition for CCCCCCCCCCCC(=O)N(CCCCCCCCC)CC(O)C(O)C(OC1OC(CO)C(O)C(O)C1O)C(O)CO (stereo not given) landed at 86.3

Quick note, growth inhibition for `N#CSCC(=O)c1ccccc1` landed at 99

Quick note, growth inhibition for `Cc1ccc(NCCNCCO)c2c(=O)c3ccccc3sc12` landed at 99.5

Quick note, growth inhibition for CN(C)c1ccc(C(=O)C2CCCC(C)(C)C2)cc1 (stereo not given) landed at 86.9

Quick note, growth inhibition for O=C(O)C1C(C(=O)Nc2ccc3c(c2)Cc2ccccc2-3)C2(Cl)C(Cl)=C(Cl)C1(Cl)C2(Cl)Cl (stereo not given) landed at 98.3

Quick note, growth inhibition for `CN(C)Cc1ccccc1C(=O)C(=O)c1ccccc1CN(C)C` landed at 57.8

Quick note, growth inhibition for `O=[N+]([O-])c1cccc(/C=N/Nc2ccc3ccccc3n2)c1O` landed at 97.8

Quick note, growth inhibition for `[Cu+2].[NH-]c1ccccc1O.[NH-]c1ccccc1[OH2+]` landed at 75.8

Quick note, growth inhibition for `CN(C)CCC[Si]1(C)c2ccccc2CCc2ccccc21` landed at 71.3

Quick note, growth inhibition for `Nc1cccc2c1C(=O)c1ccc(Cl)cc1C2=O` landed at 85.4

Quick note, growth inhibition for `CCn1cnc2[nH]cc(C#N)c2c1=O` landed at -19.2

Quick note, growth inhibition for `O=C1c2ccccc2C(=O)c2c1ccc(O)c2O.[Cu]` landed at 93.6

Quick note, growth inhibition for `CC1=NN(c2nc(N)nc(NS(=O)(=O)c3cc(C)c(Cl)cc3S)n2)C(C)(C)C1` landed at 9.85

Quick note, growth inhibition for `O=C(/C=C(/c1ccccc1)P(=O)(c1ccccc1)c1ccccc1)c1ccccc1` landed at 97.8

Quick note, growth inhibition for `N#CCc1nc(Cl)cc(Cl)n1` landed at 5.05

Quick note, growth inhibition for `COc1ncc(Br)cc1C(=O)NCCc1ccc(S(=O)(=O)NC(=O)NC2CCCCC2)cc1` landed at 94.2

Quick note, growth inhibition for `CCC(C)(C)NCCCCCNc1cc(OC)cc2cccnc12` landed at 79

Quick note, growth inhibition for COc1ccc2cc(C(=O)CCCC(C)C(=O)O)ccc2c1 (stereo not given) landed at 3.55

Quick note, growth inhibition for `Clc1ccc2c(Cl)c3c(nc2c1)CCCC3` landed at 99.5

Quick note, growth inhibition for `O=C1Nc2ccc([N+](=O)[O-])c3c([N+](=O)[O-])ccc1c23` landed at 34.2

Quick note, growth inhibition for CC(O[Si](C)(C)C(C)(C)C)C(=O)Sc1ccccn1 (stereo not given) landed at 93.9

Quick note, growth inhibition for `CCCCCCC(OCCC)OCCC` landed at -0.5

Quick note, growth inhibition for `CCOc1c(N=Nc2ccccc2Cl)c(C)nn1C(=S)S` landed at 74

Quick note, growth inhibition for CC1(C)OC2C(COC(c3ccccc3)(c3ccccc3)c3ccccc3)OC(n3cnc4c(N)ncnc43)C2O1 (stereo not given) landed at 48.2

Quick note, growth inhibition for `O=C(C[N+]1(CCc2ccccc2)CCOCC1)c1ccc(-c2ccccc2)cc1` landed at 92.8

Quick note, growth inhibition for `CC(=O)/C(=C/n1c(=S)[nH]c2ccc([N+](=O)[O-])cc21)C(=O)Nc1ccc(Cl)cc1` landed at 15.6

Quick note, growth inhibition for `C/C(=N/NC(=S)N1CCCC1)c1cccc(/C(C)=N\NC(=S)N2CCCC2)n1` landed at -8.05

Quick note, growth inhibition for `O=C1/C(=C\c2ccc(Cl)cc2Cl)Sc2scc(-c3ccc(O)c(O)c3)[n+]21` landed at 85.7

Quick note, growth inhibition for CCN(CC)c1ccc(Cl)c2c1C(O)(C(C)C)C2(C)C (stereo not given) landed at 89.8

Quick note, growth inhibition for `CC(=O)Nc1nnc(-c2coc3ccccc3c2=O)s1` landed at 15.4

Quick note, growth inhibition for `O=C(C[n+]1ccccc1)c1ccc2ccc3ccc(Cl)cc3c2c1` landed at 2.15

---

# METHOD SUMMARY: NCI Yeast Anticancer Drug Screen. Data for the sgs1 mgt1 strain (AID 161);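 note: 0% = growth of cultures given vehicle only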
# TEST CONTEXT: S. cerevisiae sgs1 mgt1 strain, at 50.0 µM (retest, dose inferred, filed as 5.0)
Compounds without any hit were thinned out: in the full panel of roughly 79,000, 15% have a hit. Calls of active or inactive are those of the source. Cut-off read from the data, not from the text of the source: active = growth inhibition above about 70%; inactive = the rest.
Your reply should match one of these outcome classes. active, inactive

Exam item: Returns: the outcome recorded for O=CNC(CCCC(=O)O)Cc1cc2ccccc2c2ccccc12 (centres undefined) in this assay.
Marked response: inactive

Exam item: Returns: the outcome recorded for CC(CCC(=O)O)(Nc1ccc([N+](=O)[O-])cc1[N+](=O)[O-])C(=O)O (centres undefined) in this assay.
Marked response: active

Exam item: Returns: the outcome recorded for `O=C(Nc1cccc(C(F)(F)F)c1)c1cc(Br)cc(Br)c1O` in this assay.
Marked response: active

Exam item: Returns: the outcome recorded for O=[N+]([O-])CC(O)c1ccccc1Cl (centres undefined) in this assay.
Marked response: active

---

# METHOD SUMMARY: NCI Yeast Anticancer Drug Screen. Data for the mlh1 rad18 strain (AID 175)
# TEST CONTEXT: S. cerevisiae mlh1 rad18 strain growth inhibition; at 50.0 µM; hits give high values
About 79,000 compounds went through this panel and 15% of them were active in at least one assay; those are over-represented in the sample as a whole.
Could you please report measured growth inhibition for the items listed next?
Report the value in % with no unit label.

Quick note, growth inhibition for `O=c1oc(-c2cccc(C(Cl)Cl)c2)ns1` landed at 99.1

Quick note, growth inhibition for CN(C)C1CCC2C3CC=C4CC(OC=O)CCC4(C)C3CCC21C (stereo not drawn) landed at 45.7

Quick note, growth inhibition for CC(CN(C)C)C(/C=C/c1ccccc1)=N\NC(=O)c1ccccc1 (stereo not drawn) landed at -3.6

Quick note, growth inhibition for `CCOc1c(N=Nc2ccc(Cl)cc2)c(-c2ccccc2)nn1C(N)=S` landed at 93.1

Quick note, growth inhibition for `CC1=C(c2ccccc2)C(=O)OC1=O` landed at -10.4

Quick note, growth inhibition for OC(CCN1CCOCC1)C1c2ccccc2Cc2ccccc21 (stereo not drawn) landed at 23.4

Quick note, growth inhibition for `Cc1cc(/C=N/Nc2ccc3cccc(O)c3n2)c(O)c2ncccc12` landed at 97

Quick note, growth inhibition for `CCCCCCCCCCCN1C(=O)c2ccccc2S1(=O)=O` landed at 32.4

Quick note, growth inhibition for CCCCCCCCCCCCCCCCn1cc(C(O)CN(C)C)c2ccccc21 (stereo not drawn) landed at 94.9

Quick note, growth inhibition for `Cc1cc(C(O)(C(F)(F)F)C(F)(F)F)cc(C(O)(C(F)(F)F)C(F)(F)F)c1` landed at 97.8

Quick note, growth inhibition for `O=C1C(Cl)=CC(=NCl)C=C1Cl` landed at 89

Quick note, growth inhibition for `Cc1cc(N)cc(C)c1-c1c(N)cc(Br)cc1Br` landed at 97.9

Quick note, growth inhibition for COc1cccc2c1C(=O)c1c(O)c3c(c(O)c1C2=O)C[C@@](O)(/C(C)=N/NC(=O)c1ccc(Cl)c(Cl)c1)C[C@@H]3OC1CC(N)C(O)C(C)O1 (stereo partly drawn) landed at 52.6

Quick note, growth inhibition for `N=C(N)c1ccc(OCCCCOc2ccc(N)cc2Cl)cc1` landed at 58.6

Quick note, growth inhibition for `Cc1cc(Cl)n2c(nc3ccccc32)c1C#N` landed at 98.3

Quick note, growth inhibition for O=C(O)C(O)Cc1ccc(O)cc1 (stereo not drawn) landed at -6.4

Quick note, growth inhibition for `[C](#[C][Sn]([c]1ccccc1)([c]1ccccc1)[c]1ccccc1)[Sn]([c]1ccccc1)([c]1ccccc1)[c]1ccccc1` landed at 96.9

Quick note, growth inhibition for `Cc1ccccc1CN(C)CCO` landed at 13.8

Quick note, growth inhibition for `N=c1scc(-c2ccccc2)n1/N=C/c1cccnc1` landed at 95.8

Quick note, growth inhibition for CCOC(=O)C(=O)CC(=O)C(Br)C(Br)c1ccc(Cl)cc1 (stereo not drawn) landed at 99.5

Quick note, growth inhibition for `CC(C)N=Cc1cc(I)cc(I)c1O.CC(C)N=Cc1cc(I)cc(I)c1O.[Co]` landed at 97

Quick note, growth inhibition for COC1CCCCC1C(=O)C(C#N)C1CCCCC1C1CCCCC1 (stereo not drawn) landed at 98.3

Quick note, growth inhibition for `O/N=C1/CCCC/C1=C/c1ccc(Cl)cc1` landed at 80

Quick note, growth inhibition for `[Br][Pt+2][Br].[NH-]c1cccc(I)c1.[NH-]c1cccc(I)c1` landed at 88.8

Quick note, growth inhibition for `Cc1cc([N+](=O)[O-])ccc1NC(=O)N(C)CCOC(=O)Nc1ccccc1` landed at 87.8

Quick note, growth inhibition for `CC(C)(C)c1ccc(-c2nnc(SCc3ccc(Cl)cc3)n2-c2cccc(C(F)(F)F)c2)cc1` landed at -19.6

Quick note, growth inhibition for `O=C(O)CSCc1cc2c3ccccc3sc2c2ccccc12` landed at 98.5

Quick note, growth inhibition for `CN(C)CCCNc1c(C#N)[n+]([O-])c2cc(Cl)ccc2[n+]1[O-]` landed at 68.8

Quick note, growth inhibition for `COc1cccc2c1S(=O)(=O)C(c1ccccc1)=CC2=O` landed at 99.5

Quick note, growth inhibition for `CCC(=O)OC1=C(Cl)C(=O)c2ccccc2C1=O` landed at 55.4

Quick note, growth inhibition for `Cc1ccc(-c2c(N)[n+]([O-])c3ccccc3[n+]2[O-])cc1` landed at 99

Quick note, growth inhibition for `COc1ccc(CN2CCCN(Cc3ccc(OC)cc3OC)C2c2cccc([N+](=O)[O-])c2O)c(OC)c1` landed at 51.4

Quick note, growth inhibition for `Cc1ccc(C(=O)/C(Cl)=N/O)cc1` landed at 98.5

Quick note, growth inhibition for `C[N+]1(C)CCN(CCCN2c3ccccc3Sc3ccccc32)CC1` landed at 56.9

Quick note, growth inhibition for N#CC1=CN(Cc2ccccc2)C(C#Cc2ccccc2)C=C1 (stereo not drawn) landed at 83.2

Quick note, growth inhibition for `CCCCCc1cc(C(=O)OC/C(C)=N/O)c2ccccc2n1` landed at 97.4

Quick note, growth inhibition for CC12CC(Sc3ccccc3N1)c1ccccc1O2 (stereo not drawn) landed at 44.5

Quick note, growth inhibition for `COc1ccccc1NC(=O)/C(=C\N1C(=O)/C(=C/c2cc(OC)c(OC)c(OC)c2)SC1=S)C(C)=O` landed at 49.7
